Just for reference, patent US20250353873A1 is where these values come from.

system: human APOE RNA; experiment: Dose-dependent inhibition of human APOE RNA in HepG2 cells, electroporation, 50,000 cells per well, RT-PCR normalized to GAPDH (Example 4, Tables 8-10); assay type: cell-based; conditions: HepG2 cells, electroporation, 24-hour treatment, 20,000 nM, Table 8
Strand notation (5' to 3'): a small letter for the sugar, then the base; units joined by * are phosphorothioate-linked, units joined directly phosphodiester-linked; [ ] holds rarer units or linkages, { } end groups; capitals alone tell only the bases. [ms] = mesyl phosphoramidate linkage; e = 2'-O-(2-methoxyethyl) (MOE); k = constrained ethyl (cEt); [5mC] = 5-methylcytosine; d = 2'-deoxy (DNA)
Below, each of the substances is paired with its reported APOE RNA (% UTC) 20,000 nM value.
Parameter: APOE RNA (% UTC) 20,000 nM

substance="1778130: modified oligonucleotide complementary to human APOE RNA (eA*e[5mC]eTeTeG*kG*dT*dG[ms]dA[ms]dA*dT*d[5mC]*dT*dT*dT*dA[ms]kTkT*eA*eA; antisense) [compound 1778130]" test_result=6
substance="1778111: modified oligonucleotide complementary to human APOE RNA (eA*e[5mC]eTeTeG*kG*dT*dG[ms]dA[ms]dA*dT*d[5mC]*dT*dT*dT*dA[ms]eTeT*eA*eA; antisense) [compound 1778111]" test_result=9
substance="1778128: modified oligonucleotide complementary to human APOE RNA (eA*e[5mC]eTeTkGkG*dT*dG[ms]dA[ms]dA*dT*d[5mC]*dT*dT*dT*dA[ms]kTeT*eA*eA; antisense) [compound 1778128]" test_result=5
substance="1778131: modified oligonucleotide complementary to human APOE RNA (eA*e[5mC]eTeTeGkG*dT*dG[ms]dA[ms]dA*dT*d[5mC]*dT*dT*dT*dA[ms]kTkT*eA*eA; antisense) [compound 1778131]" test_result=5
substance="1778114: modified oligonucleotide complementary to human APOE RNA (eA*e[5mC]eTeTkG*kG*dT*dG[ms]dA[ms]dA*dT*d[5mC]*dT*dT*dT*dA[ms]eTeT*eA*eA; antisense) [compound 1778114]" test_result=7
substance="1778154: modified oligonucleotide complementary to human APOE RNA (e[5mC]*eT*eTeGeGeT*dG[ms]dA[ms]dA*dT*d[5mC]*dT*dT*dT*dA*dT*kTkAeA*eA; antisense) [compound 1778154]" test_result=8
substance="1778127: modified oligonucleotide complementary to human APOE RNA (eA*e[5mC]eTeTkGkG*dT*dG[ms]dA[ms]dA*dT*d[5mC]*dT*dT*dT*dA[ms]kTeT[ms]eA[ms]eA; antisense) [compound 1778127]" test_result=4
substance="Aes^mCeoTeoTesGesGksTdsGdzAdzAdzTds^mCdsTdsTdsTdsAdzTksTksAesAe (eA*e[5mC]eTeT*eG*kG*dT*dG[ms]dA[ms]dA[ms]dT*d[5mC]*dT*dT*dT*dA[ms]kT*kT*eA*eA) [Compound No. 1757576]" test_result=2
substance="1778129: modified oligonucleotide complementary to human APOE RNA (eA*e[5mC]eTeTeG*kG*dT*dG[ms]dA[ms]dA*dT*d[5mC]*dT*dT*dT*dA[ms]kT*kT*eA*eA; antisense) [compound 1778129]" test_result=2
substance="1778115: modified oligonucleotide complementary to human APOE RNA (eA*e[5mC]eTeTkGkG*dT*dG[ms]dA[ms]dA*dT*d[5mC]*dT*dT*dT*dA[ms]eTeT*eA*eA; antisense) [compound 1778115]" test_result=6
substance="1785598: modified oligonucleotide complementary to human APOE RNA (k[5mC]*kT*kT*dG[ms]dG[ms]dT[ms]dG[ms]dA[ms]dA[ms]dT*d[5mC]*dT*dT*dT*dA*dT[ms]kT*kA*dA[ms]kA; antisense) [compound 1785598]" test_result=9

====

test system: human APOE RNA; assay: Dose-dependent inhibition of human APOE RNA in HepG2 cells, electroporation, 50,000 cells per well, RT-PCR normalized to GAPDH (Example 4, Tables 8-10); format: cell-based; details: 8,000 nM; HepG2, electroporation, 16-hour treatment
Strand notation (5' to 3'): a small letter for the sugar, then the base; units joined by * are phosphorothioate-linked, units joined directly phosphodiester-linked; [ ] holds rarer units or linkages, { } end groups; capitals alone tell only the bases. [ms] = mesyl phosphoramidate linkage; e = 2'-O-(2-methoxyethyl) (MOE); k = constrained ethyl (cEt); [5mC] = 5-methylcytosine; d = 2'-deoxy (DNA)
Below, each of the substances is paired with its reported APOE RNA (% UTC) value.
Parameter: APOE RNA (% UTC)

substance="1757571 (eA*e[5mC]eTeT*eG*kG*dT*dG[ms]dA[ms]dA[ms]dT*d[5mC]*dT*dT*dT*dA[ms]eT*eT*eA*eA; antisense) [Compound 1757571]" test_result=14
substance="1757551: mixed MOE/cEt gapmer TTGGTGAATCTTTATTAA, sugar eeekkddddddddeeeee, linkages soossssssssssooss (eT*eTeGkG*kT*dG*dA*dA*dT*d[5mC]*dT*dT*dT*eAeTeT*eA*eA) [compound 1757551]" test_result=14
substance="1757586 (eT*eTeGeGkT*dG*dA*dA*dT*d[5mC]*dT*dT*dT*dA*dT*kTkAeA*eA*e[5mC]; antisense) [Compound 1757586]" test_result=19
substance="Aes^mCeoTeoTesGesGksTdsGdzAdzAdzTds^mCdsTdsTdsTdsAdzTksTksAesAe (eA*e[5mC]eTeT*eG*kG*dT*dG[ms]dA[ms]dA[ms]dT*d[5mC]*dT*dT*dT*dA[ms]kT*kT*eA*eA) [Compound No. 1757576]" test_result=22
substance="1757541: mixed MOE/cEt gapmer TTGGTGAATCTTTATTAA, sugar eeeekddddddddeeeee, linkages soossssssssssooss (eT*eTeGeG*kT*dG*dA*dA*dT*d[5mC]*dT*dT*dT*eAeTeT*eA*eA) [compound 1757541]" test_result=22

====

test system: human APOE RNA; experiment: Dose-dependent reduction of human APOE RNA in HepG2 cells, electroporation, 20,000 cells per well, average of GAPDH- and PPIA-normalized results (Example 4, Table 12); assay type: cell-based; conditions: 33 nM, HepG2, 20,000 cells per well
Strand notation (5' to 3'): a small letter for the sugar, then the base; units joined by * are phosphorothioate-linked, units joined directly phosphodiester-linked; [ ] holds rarer units or linkages, { } end groups; capitals alone tell only the bases. [ms] = mesyl phosphoramidate linkage; e = 2'-O-(2-methoxyethyl) (MOE); k = constrained ethyl (cEt); [5mC] = 5-methylcytosine; d = 2'-deoxy (DNA)
Parameter: APOE RNA (% UTC)

substance="1785617: modified oligonucleotide complementary to human APOE RNA (k[5mC]*dT[ms]dT[ms]kG*dG[ms]kT*dG[ms]dA[ms]dA[ms]dT[ms]d[5mC]*dT*dT*dT*dA*dT*kT*kA*dA[ms]kA; antisense) [compound 1785617]" parameter="APOE RNA (% UTC)" test_result=82
substance="1757575 (eA*e[5mC]eTeT*kG*kG*dT*dG[ms]dA[ms]dA[ms]dT*d[5mC]*dT*dT*dT*dA[ms]kT*eT*eA*eA; antisense) [Compound 1757575]" parameter="APOE RNA (% UTC)" test_result=93
substance="1778131: modified oligonucleotide complementary to human APOE RNA (eA*e[5mC]eTeTeGkG*dT*dG[ms]dA[ms]dA*dT*d[5mC]*dT*dT*dT*dA[ms]kTkT*eA*eA; antisense) [compound 1778131]" parameter="APOE RNA (% UTC)" test_result=85

====

test system: human APOE RNA; experiment: Activity in APOE C57BL/6NTac-Apoeem7250 knock-in mice, single ICV bolus, 16 weeks (Example 12); assay type: in vivo; details: spinal cord; single ICV bolus 300 μg; 16 weeks post treatment; normalized to mouse Ppia
Strand notation (5' to 3'): a small letter for the sugar, then the base; units joined by * are phosphorothioate-linked, units joined directly phosphodiester-linked; [ ] holds rarer units or linkages, { } end groups; capitals alone tell only the bases. [ms] = mesyl phosphoramidate linkage; e = 2'-O-(2-methoxyethyl) (MOE); k = constrained ethyl (cEt); [5mC] = 5-methylcytosine; d = 2'-deoxy (DNA)
Parameter: APOE RNA (% control) Spinal Cord

substance="1693105: 6-10-4 MOE gapmer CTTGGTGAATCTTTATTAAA, linkages sosssszzzssssszssss (e[5mC]*eTeT*eG*eG*eT*dG[ms]dA[ms]dA[ms]dT*d[5mC]*dT*dT*dT*dA[ms]dT*eT*eA*eA*eA) [compound 1693105]" test_result=44
substance="1681003: 5-10-5 MOE gapmer GGTGAATCTTTATTAAACTA, linkages soooszsssszzszsooss (antisense eG*eGeTeGeA*dA[ms]dT*d[5mC]*dT*dT*dT[ms]dA[ms]dT*dT[ms]dA*eAeAe[5mC]*eT*eA) [compound 1681003]" test_result=61
substance="1681007: 5-10-5 MOE gapmer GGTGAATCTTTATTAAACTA, linkages zsssszsssszzszssszz (antisense eG[ms]eG*eT*eG*eA*dA[ms]dT*d[5mC]*dT*dT*dT[ms]dA[ms]dT*dT[ms]dA*eA*eA*e[5mC][ms]eT[ms]eA) [compound 1681007]" test_result=67
substance="1693143: 6-10-4 MOE gapmer ACTTGGTGAATCTTTATTAA, linkages ssossszzzssssszsss (as printed) (sugars from the 5' end e6 d10 e4, all C 5-methyl, backbone not given here; further chemistry not fully specified) [compound 1693143]" test_result=64
substance="1736532 (e[5mC]*eT*eT*eG*kG*kTdG[ms]dA[ms]dA[ms]dT*d[5mC]*dT*dT*dT*dA[ms]dT*eT*eA*eA*eA; antisense) [Compound 1736532]" test_result=45
substance="1778114: modified oligonucleotide complementary to human APOE RNA (eA*e[5mC]eTeTkG*kG*dT*dG[ms]dA[ms]dA*dT*d[5mC]*dT*dT*dT*dA[ms]eTeT*eA*eA; antisense) [compound 1778114]" test_result=27
substance="1681021: 5-10-5 MOE gapmer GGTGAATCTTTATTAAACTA, linkages zsssszsssszzssssssz (antisense eG[ms]eG*eT*eG*eA*dA[ms]dT*d[5mC]*dT*dT*dT[ms]dA[ms]dT*dT*dA*eA*eA*e[5mC]*eT[ms]eA) [compound 1681021]" test_result=40
